Please go through the items and note down their Sandwich ELISA (diagnostic) HEK cells overexpressing LRRK2, DMSO (RLU mean ± SD).
# tested.on: T1, phosphorylated Rab10 in lysates of HEK cells overexpressing LRRK2 (Homo sapiens, UniProt P61026)
# T1 construct: expressed in transfected cells; host or cells: HEK cells overexpressing LRRK2
# T1 sequence (P61026 1-200): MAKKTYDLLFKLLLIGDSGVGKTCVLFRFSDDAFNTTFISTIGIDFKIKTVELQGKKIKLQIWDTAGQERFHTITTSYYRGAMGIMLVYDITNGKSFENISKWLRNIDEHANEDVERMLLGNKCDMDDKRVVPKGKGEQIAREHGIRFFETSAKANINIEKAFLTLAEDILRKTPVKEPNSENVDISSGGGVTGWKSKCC
# test.details: Sandwich ELISA (diagnostic), HEK cells overexpressing LRRK2
# Assay type: binding
# particulars: DMSO treated cells
Give the value, in units of RLU, as a plain number.

Lab note: measured Sandwich ELISA (diagnostic) HEK cells overexpressing LRRK2, DMSO (RLU mean ± SD) of Clone 247-8: anti-phosphorylated (pT73) Rab10 rabbit monoclonal antibody; VH SEQ ID NO:47, VL SEQ ID NO:51 (antibody, V domains shown) VH: METGLRWLLLVAVLKGVQCQSVEESGGRLVTPGTPLTLTCTVSGFSLSSYAMGWVRQAPGKGLEYIGIISRSGITYYATWAKGRFTISKASTTVDLRIASPTTEDTATFFCVRDYDSSGWSGFNIWGPGTLVTVSL VL: MDTRAPTQLLGLLLLWLPGAICDPVMTQTPSSTSAAVGGTVTINCQSSQSVYGNNYLSWFQQKPGQPPKLLIYKASTLASGVPSRFKGSGSGTQFTLTISGVQCDDAATYYCAGAYSDNRVFGGGTEVVVK was 13096

For this molecule ( Clone 153-2: anti-phosphorylated (pT73) Rab10 rabbit monoclonal antibody; VH SEQ ID NO:39, VL SEQ ID NO:43 (antibody, V domains shown) VH: METGLRWLLLVAVLKGVQCQSVEESGGRLVTPGTPLTLTCTASGFSLSTYYMSWVRQAPGKGLEWIGIINTGGIVHYANWVRGRFTISKTSTTVDLRITSPTAEDTATYFCARAYSADRLDLWGQGTLVTVSS VL: MDTRAPTQLLGLLLLWLPGATFAAVLTQTPSPVSAAVGGTVTISCQSSESVYGNNRLSWYQQKPGQPPKLLMYYASTLASGVPSRFRGSGSGTQFTLTISDVQCDDAASYYCLGGYKRDSNNAFGGGTEVVVK ), measured Sandwich ELISA (diagnostic) HEK cells overexpressing LRRK2, DMSO (RLU mean ± SD) is 596606
